target: SARS-CoV-2 M^pro protease (Severe acute respiratory syndrome coronavirus 2 (2019-nCoV) (SARS-CoV-2), UniProt P0DTD1)
measurement.name: log10 IC50 (log10 of the value in µM)
Could you please treat all values as log10 of IC50 in µM?

Past entries and their recorded results:
O=C(NCC(NC(=O)C1COc2ccccc21)c1ccccc1)c1cccc2cnsc12 (centres unmarked) [(106)] :: 0.95
Cc1cc[nH]c(=O)c1C(=O)NC[C@H](NC(=O)c1cncc2ccccc12)c1ccc2ccccc2c1 (single isomer, unassigned) [(103)] :: 1.85
Cc1cc[nH]c(=O)c1C(=O)NCC(NC(=O)c1cncc2ccccc12)c1ccc2ccccc2c1 (racemic) [(101)] :: 0.23
CC(=O)c1c(C)[nH]c(C(=O)N[C@H](CNC(=O)c2ccc(F)c3ccccc23)c2ccccc2)c1C [(108)] :: 1.51
O=C(NCC(NC(=O)c1cncc2sccc12)c1ccc2ccccc2c1)c1cc(O)cc(O)c1 (centres unmarked) [(105)] :: 1.79
Cc1cc(C(=O)NC(CNC(=O)c2cccc3sncc23)c2ccc3ccccc3c2)cc(=O)[nH]1 (centres unmarked) [(104)] :: 1.68
O=C(NCC(NC(=O)c1cncc2[nH]ccc12)c1ccc2ccccc2c1)c1ccsc1 (centres unmarked) [(107)] :: 1.28

Input: Entry under review: Cc1cc[nH]c(=O)c1C(=O)NC[C@H](NC(=O)c1cncc2ccccc12)c1ccc2ccccc2c1 (single isomer, unassigned) [(102)] . Reported log10 IC50?
Output: 0.20
